B1: Peroxisome proliferator-activated receptor gamma coactivator 1-alpha (Homo sapiens), Q9UBK2 (parent)
chain: MAWDMCNQDSESVWSDIECAALVGEDQPLCPDLPELDLSELDVNDLDTDSFLGGLKWCSDQSEIISNQYNNEPSNIFEKIDEENEANLLAVLTETLDSLPVDEDGLPSFDALTDGDVTTDNEASPSSMPDGTPPPQEAEEPSLLKKLLLAPANTQLSYNECSGLSTQNHANHNHRIRTNPAIVKTENSWSNKAKSICQQQKPQRRPCSELLKYLTTNDDPPHTKPTENRNSSRDKCTSKKKSHTQSQSQHLQAKPTTLSLPLTPESPNDPKGSPFENKTIERTLSVELSGTAGLTPPTTPPHKANQDNPFRASPKLKSSCKTVVPPPSKKPRYSESSGTQGNNSTKKGPEQSELYAQLSKSSVLTGGHEERKTKRPSLRLFGDHDYCQSINSKTEILINISQELQDSRQLENKDVSSDWQGQICSSTDSDQCYLRETLEASKQVSPCSTRKQLQDQEIRAELNKHFGHPSQAVFDDEADKTGELRDSDFSNEQFSKLPMFINSGLAMDGLFDDSEDESDKLSYPWDGTQSYSLFNVSPSCSSFNSPCRDSVSPPKSLFSQRPQRMRSRSRSFSRHRSCSRSPYSRSRSRSPGSRSSSRSCYYYESSHYRHRTHRNSPLYVRSRSRSPYSRRPRYDSYEEYQHERLKREEYRREYEKRESERAKQRERQRQKAIEERRVIYVGKIRPDTTRTELRDRFEVFGEIEECTVNLRDDGDSYGFITYRYTCDAFAALENGYTLRRSNETDFELYFCGRKQFFKSNYADLDSNSDDFDPASTKSKYDSLDFDSLLKEAQRSLRR
partner: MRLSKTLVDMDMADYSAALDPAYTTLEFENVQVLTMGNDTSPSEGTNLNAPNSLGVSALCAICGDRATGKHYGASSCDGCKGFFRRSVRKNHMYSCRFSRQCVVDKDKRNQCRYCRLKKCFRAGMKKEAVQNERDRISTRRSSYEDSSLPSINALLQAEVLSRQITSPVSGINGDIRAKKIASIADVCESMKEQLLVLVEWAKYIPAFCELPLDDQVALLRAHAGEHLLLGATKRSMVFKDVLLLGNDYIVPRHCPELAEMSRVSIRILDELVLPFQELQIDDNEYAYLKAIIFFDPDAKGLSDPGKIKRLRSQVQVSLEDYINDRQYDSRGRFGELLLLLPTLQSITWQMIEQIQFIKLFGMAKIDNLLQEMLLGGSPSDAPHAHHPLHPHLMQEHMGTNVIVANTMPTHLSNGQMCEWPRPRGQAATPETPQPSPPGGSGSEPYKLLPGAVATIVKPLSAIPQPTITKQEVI

Variants of: B1
Settings: with hnf4a_human HNF4A
readoutName: effect of a mutation on the interaction

V91A;L92A;L147A;L148A | decreasing interaction
V91A;L92A | decreasing interaction
V91A;L92A;L147A;L148A;Y213A;L214A | disrupting interaction
V91A;L92A;Y213A;L214A | decreasing interaction

Kindly review the next variant as well.
Note to self: effect of a mutation on the interaction recorded for `L147A;L148A;Y213A;L214A` was disrupting interaction
